Assay method text: Single dose inhalation study: LNP component lipid levels in blood, lung, liver, spleen
Format: in vivo, cynomolgus monkey
Test context: both sexes, cynomolgus monkey, plasma, inhaled, 0.34 mg/kg, high dose (group 3); 6 hr; read-out: lipid level in plasma
Value kind: concentration at 6 hr
A complete answer gives the number and then names the unit.

Ask | What value of concentration at 6 hr has been recorded for this entry: CCCCCCCCCCCCCC(=O)OCC(COP(=O)(OCC)OCC[N+](C)(C)C)OC(=O)CCCCCCCCCCCCC (stereo not shown)
Reply | 1.97 ng/mL

###

Assay method text: Single dose inhalation study: LNP component lipid levels in blood, lung, liver, spleen
Assay type: in vivo, cynomolgus monkey
Test context: both sexes, cynomolgus monkey, lung, inhaled, 0.34 mg/kg, 6 hr; high dose (group 3); read-out: lipid level in lung
Value kind: concentration at 6 hr

Ask | Give its concentration at 6 hr value. Item: CCCCCCCCCCCCCC(=O)OCC(COP(=O)(OCC)OCC[N+](C)(C)C)OC(=O)CCCCCCCCCCCCC (stereo not shown)
Reply | 13900 to 66700 ng/g

###

Assay method text: Single dose inhalation study: LNP component lipid levels in blood, lung, liver, spleen
Type: in vivo, cynomolgus monkey
Test context: both sexes, cynomolgus monkey, plasma, inhaled, 0.34 mg/kg, high dose (group 3); 1 hr; read-out: lipid level in plasma
Value kind: concentration at 1 hr (ng/mL)
Numbers only, in ng/mL.

Ask | Which concentration at 1 hr value belongs to CCCCCCCCCCCCCC(=O)OCC(COP(=O)(OCC)OCC[N+](C)(C)C)OC(=O)CCCCCCCCCCCCC (stereo not shown) ?
Reply | 1.03

###

Assay method text: Single dose inhalation study: LNP component lipid levels in blood, lung, liver, spleen
Type: in vivo, cynomolgus monkey
Test context: both sexes, cynomolgus monkey, lung, inhaled, 0.34 mg/kg; 6 hr post-exposure; high dose group; read-out: lipid level in lung
Protocol: Group 1 animals were terminated at 24-hours post end of exposure. Levels of the LNP component lipids 4A3-SC7, 14:0 EPC, and DMG-PEG were measured in blood, lung, liver, and spleen samples following administration of Composition-DNAI1-HA. Blood samples were collected at pre-treatment, 0.5 hr, 1 hr, 6 hr, 24 hr, 48 hr, and 7 days postadministration and processed to separate the plasma and blood cell fractions. Spleen and liver samples were collected at 6 hr, 24 hr, 72 hr, and 7 days post-exposure. […]
Value kind: concentration at 6 hr

Ask | I would be grateful if you could share the reported concentration at 6 hr for CCCCCCCSCC(C)C(=O)OCCOC(=O)CCN(CCCN(C)CCCN(CCC(=O)OCCOC(=O)C(C)CSCCCCCCC)CCC(=O)OCCOC(=O)C(C)CSCCCCCCC)CCC(=O)OCCOC(=O)C(C)CSCCCCCCC (stereo not shown) .
Reply | 9550 to 67800 ng/mL

Just for reference, patent US12133923B2 is where these values come from.
